Quick reference: Emax of the listed items.
# EXPERIMENTAL TARGET: PKR(wt) (Homo sapiens)
# Sequence (P30613 whole entry): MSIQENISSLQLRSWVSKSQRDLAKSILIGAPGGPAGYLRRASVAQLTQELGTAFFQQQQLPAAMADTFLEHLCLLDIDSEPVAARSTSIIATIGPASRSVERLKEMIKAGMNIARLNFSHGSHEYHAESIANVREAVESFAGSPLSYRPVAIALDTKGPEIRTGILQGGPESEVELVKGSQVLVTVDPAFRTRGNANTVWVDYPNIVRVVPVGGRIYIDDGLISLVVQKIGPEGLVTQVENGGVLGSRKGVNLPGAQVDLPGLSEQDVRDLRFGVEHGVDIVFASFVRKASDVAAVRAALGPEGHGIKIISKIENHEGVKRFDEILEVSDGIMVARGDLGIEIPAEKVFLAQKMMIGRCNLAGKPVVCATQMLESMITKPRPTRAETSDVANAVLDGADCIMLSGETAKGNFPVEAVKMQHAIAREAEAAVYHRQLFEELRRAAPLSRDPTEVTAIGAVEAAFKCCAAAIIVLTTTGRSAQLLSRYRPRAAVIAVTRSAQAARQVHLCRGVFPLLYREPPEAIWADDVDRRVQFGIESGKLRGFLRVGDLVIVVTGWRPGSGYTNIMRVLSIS
# ASSAY EXPLANATION: Luminescence Assay Protocol (Kinase Glo Plus), PKR(Wt/without FBP)
# Type: biochemical
# CONDITION DESCRIPTION: without FBP, highest % fold increase at any concentration, read-out: H - AC50 LUM KGP woFBP MAX % FOLD mean
OUTCOME MEASURE: Emax

| COMPOUND | EXPERIMENTAL TARGET | RESULT VALUE |
| --- | --- | --- |
| C[C@@H](O)[C@@H](C(=O)N1CC2=C(C1)CN(S(=O)(=O)c1ccc(OC(F)F)cc1)C2)c1ccccc1 (racemic) [Example 26] | PKR(wt) (Homo sapiens) | 250 to 500% |
| C[C@H](O)CC(=O)N1CC2=C(C1)CN(S(=O)(=O)c1ccc3occc3c1)C2 [Example 24] | PKR(wt) (Homo sapiens) | 250 to 500% |
| CN1CCOc2ccc(S(=O)(=O)N3CC4=C(CN(C(=O)C(CO)c5ccccc5)C4)C3)cc21 (stereo not shown) [Example 46] | PKR(wt) (Homo sapiens) | 75 to 250% |
| O=C([C@H]1CCOC1)N1CC2=C(C1)CN(S(=O)(=O)c1ccc3occc3c1)C2 [Example 13] | PKR(wt) (Homo sapiens) | 250 to 500% |
| COCC1(C(=O)N2CC3=C(C2)CN(S(=O)(=O)c2ccc4c(c2)NCCO4)C3)CC1 [Example 36] | PKR(wt) (Homo sapiens) | 75 to 250% |
| CC(C)(O)[C@@H](C(=O)N1CC2=C(C1)CN(S(=O)(=O)c1ccc(OC(F)F)cc1)C2)c1ccccc1 [Example 28] | PKR(wt) (Homo sapiens) | 250 to 500% |
| COCC1(C(=O)N2CC3=C(C2)CN(S(=O)(=O)c2ccc4occc4c2)C3)CC1 [Example 17] | PKR(wt) (Homo sapiens) | 75 to 250% |
| O=C(C1CCCOC1)N1CC2=C(C1)CN(S(=O)(=O)c1ccc3ncsc3c1)C2 (stereo not shown) [Example 15] | PKR(wt) (Homo sapiens) | 75 to 250% |
| O=C(C(CO)c1ccccc1)N1CC2=C(C1)CN(S(=O)(=O)c1ccc3ncsc3c1)C2 (stereo not shown) [Example 48] | PKR(wt) (Homo sapiens) | 250 to 500% |
| O=C([C@@H]1CCOC1)N1CC2=C(C1)CN(S(=O)(=O)c1ccc3occc3c1)C2 [Example 12] | PKR(wt) (Homo sapiens) | 250 to 500% |

====

Quick reference: activation at 1.54 µM of the listed items.
# EXPERIMENTAL TARGET: PKR(R510Q) (Homo sapiens, UniProt P30613, R510Q)
# Sequence (P30613 whole entry R510Q): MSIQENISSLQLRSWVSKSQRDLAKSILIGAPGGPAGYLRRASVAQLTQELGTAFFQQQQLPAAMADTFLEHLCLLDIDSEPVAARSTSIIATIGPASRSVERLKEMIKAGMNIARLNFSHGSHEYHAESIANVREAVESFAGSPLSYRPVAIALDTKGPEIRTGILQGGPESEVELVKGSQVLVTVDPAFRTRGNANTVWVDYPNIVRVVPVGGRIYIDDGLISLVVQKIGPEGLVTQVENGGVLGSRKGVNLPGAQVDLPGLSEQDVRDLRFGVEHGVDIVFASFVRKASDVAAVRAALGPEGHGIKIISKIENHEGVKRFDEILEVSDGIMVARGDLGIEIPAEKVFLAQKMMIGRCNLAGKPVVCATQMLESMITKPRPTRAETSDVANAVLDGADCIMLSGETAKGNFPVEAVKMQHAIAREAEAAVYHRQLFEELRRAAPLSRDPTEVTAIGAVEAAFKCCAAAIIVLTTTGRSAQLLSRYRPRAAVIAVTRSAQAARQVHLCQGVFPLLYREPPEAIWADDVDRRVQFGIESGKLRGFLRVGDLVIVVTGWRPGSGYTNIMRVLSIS
# ASSAY EXPLANATION: Luminescence Assay Protocol (Kinase Glo Plus), PKR(R510Q/without FBP)
# Format: biochemical
# CONDITION DESCRIPTION: PKRR510Q, without FBP, compound 1.54 μM; read-out: F - AC50 LUM KGP woFBP % Fold @ 1.54 μM mean
OUTCOME MEASURE: activation at 1.54 µM

| COMPOUND | OUTCOME MEASURE | RESULT VALUE |
| --- | --- | --- |
| CC(C)(CO)C(=O)N1CC2=C(C1)CN(S(=O)(=O)c1ccc3c(c1)NCCO3)C2 | activation at 1.54 µM | 250 to 500% |
| O=C([C@H](CO)c1ccccc1)N1CC2=C(C1)CN(S(=O)(=O)c1cnc3c(c1)OCCO3)C2 (single isomer, unassigned) | activation at 1.54 µM | 250 to 500% |
| COCCC(=O)N1CC2=C(C1)CN(S(=O)(=O)c1ccc3c(c1)OCCO3)C2 | activation at 1.54 µM | 75 to 250% |
